Each entry below carries its reported polymerase ribozyme fitness (log ratio).
B1: TPR 5TU (parent)
chain: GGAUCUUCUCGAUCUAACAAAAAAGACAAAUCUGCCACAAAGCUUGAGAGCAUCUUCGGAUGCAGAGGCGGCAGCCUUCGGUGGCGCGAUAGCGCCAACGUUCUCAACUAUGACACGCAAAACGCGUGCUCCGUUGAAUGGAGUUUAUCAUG

- Variants of: B1
- assay_overview: polymerase ribozyme fitness, log enrichment relative to wild type (log ratio); higher = more active; in vitro selection for triplet polymerase activity
Variants at the floor of the assay were thinned out.

Query block: Using the record for C5G C18U A21C G86A C105A C123G , state its measured polymerase ribozyme fitness (log ratio).
Result block: ≤ -4.2

Query block: Using the record for C10G C27A A39U C75A G92C A97U A121U , state its measured polymerase ribozyme fitness (log ratio).
Result block: ≤ -4.2

Query block: Using the record for U9G A142G , state its measured polymerase ribozyme fitness (log ratio).
Result block: ≤ -4.2

Query block: Using the record for C43A A66G U77A A97G U146A , state its measured polymerase ribozyme fitness (log ratio).
Result block: ≤ -4.2

Query block: Using the record for U61G U77G G92A C96A G143U , state its measured polymerase ribozyme fitness (log ratio).
Result block: ≤ -4.2

Query block: Using the record for A3C U31G C51U A60C A122C G140A , state its measured polymerase ribozyme fitness (log ratio).
Result block: ≤ -4.2

// moving on: another record for polymerase ribozyme fitness (log ratio)
Query block: Using the record for U6G C54G A73U U102A A106G U127G C132G U135G , state its measured polymerase ribozyme fitness (log ratio).
Result block: ≤ -4.2
